The measured values listed here are drawn from PubChem BioAssay.

assay: COS7 lysate on small-molecule microarray, probe aHis, 635 nm (AID 1123); details: COS7 cell lysate, fluorescence, higher = more signal;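 further: z-score combines 667nm fluorescence intensity with signal-to-noise per printed compound spot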
property: composite z-score
Format: numeric value only, no unit, no commentary.

Reference set, count: 2
compound="CN1C(=O)C2C=CC(C(O)c3cccs3)N(Nc3ccccc3)C2C1=O (centres undefined)" data_value=1.87
compound=C=CCN1C(=O)[C@@]2(O[C@@H](CCO)[C@H]([Si](C)(C)c3ccc(OC)cc3)[C@H]2C)c2cc(NC(=O)c3ccc(OC)cc3)ccc21 data_value=0.244

Reported composite z-score for `COC(=O)c1c(CC[C@@H](CO)NC(=O)N[C@H](Cn2cc(Cc3ccccc3)nn2)C(C)C)oc(C(C)=O)c1C(=O)OC` : what is it?
0.889

Reported composite z-score for `COC(=O)[C@@]1(Cc2ccccc2)[C@H]2c3cc(C(=O)N4CCCC4)n(Cc4cccc5ccccc45)c3C[C@H]2CN1C(=O)c1ccccc1` : what is it?
1.54

---

test system: XIP peptide (Xip251-270); assay: small-molecule binders of XIP peptide, primary screen, biochemical, small-molecule microarray, fluorescence 635/667 nm, 0.5 µg/mL protein (AID 1183); settings: small-molecule microarray binding, fluorescence 635 nm; higher = more signal
We use 0.6 as the dividing line for composite z-score: on or above the line is true (1), below is false (0).

These solved cases illustrate the format of a correct answer.
molecule="O=C1OCCC/C=C\\[C@H]2OC34C=CCN(Cn5nnc6ccccc65)C(=O)[C@H]3N(CCCCCCO)C(=O)[C@@H]4C12 (some centres not stated)" class_name="false (0)"
molecule=COc1ccc([Si](C)(C)[C@H]2[C@H](CCn3cc([C@H](O)c4ccccc4)nn3)O[C@@]3(C(=O)N(Cc4cccc(N5CCOC5=O)c4)c4ccccc43)[C@@H]2C)cc1 class_name="false (0)"
molecule=C=CCOC(=O)[C@H]1[C@@H]2C(=O)O[C@@H](c3ccccc3)[C@@H](c3ccccc3)N2[C@@H](c2ccc(OCCOC(=O)[C@H]3C[C@H]4C(=O)N5CCC[C@H]5C(=O)N4[C@H]3c3ccc(O)cc3)cc2)[C@]12C(=O)Nc1ccccc12 class_name="true (1)"
molecule="CC(C)c1ccc(NN2C(C(O)c3cc(C(F)(F)F)cc(C(F)(F)F)c3)C=CC3C(=O)N(c4ccccc4)C(=O)C32)cc1 (configuration not stated)" class_name="true (1)"
molecule=CN(C)CCCC[C@@H]1NC(=O)[C@H]2C[C@@H](C(=O)NCCCCCNC(=O)CS)[C@@H](c3cccc(OCCO)c3)N2C1=O class_name="false (0)"
molecule=CN(C)C(=O)[C@@]1(Cc2ccccc2CN=[N+]=[N-])N=C(c2ccc(OCCCO)cc2)O[C@H]1c1ccccc1 class_name="true (1)"
molecule=C=CCNC(=O)[C@@H]1[C@H]2C(=O)O[C@H](c3ccccc3)[C@H](c3ccccc3)N2[C@H](c2ccc(OCCO)cc2)[C@@]12C(=O)Nc1ccc(C#Cc3ccc(OC)cc3)cc12 class_name="true (1)"
molecule="CCCCN1CC=CC23O[C@@H]4/C=C\\CCC(C)OC(=O)C4[C@H]2C(=O)N(CCCCCO)[C@@H]3C1=O (some centres not stated)" class_name="false (0)"

Is composite z-score at least 0.6? Consider `COCCOC(=O)N1C(=O)[C@@]2(c3cc(C#CC4=CCCCC4)ccc31)[C@H](C(=O)Nc1nc3ccccc3s1)[C@H]1C(=O)O[C@H](c3ccccc3)[C@H](c3ccccc3)N1[C@@H]2c1ccc(OCCO)cc1`
false (0)

Is composite z-score at least 0.6? Consider `CO[C@H]1O[C@H](CO)[C@@H](OC(=O)Nc2ccc(Br)cc2)[C@H](OC(=O)c2cc3ccccc3[nH]2)[C@H]1OC(=O)c1cc2ccccc2[nH]1`
true (1)

Is composite z-score at least 0.6? Consider `COCCOC(=O)N1C(=O)[C@@]2(c3cc(C#CCCO)ccc31)[C@H](C(=O)Nc1nc3ccccc3s1)[C@H]1C(=O)O[C@H](c3ccccc3)[C@H](c3ccccc3)N1[C@@H]2c1ccc(OCCO)cc1`
true (1)

Is composite z-score at least 0.6? Consider `C=C/C=C/[C@H]1C(=C)CN([C@@H](Cc2ccccc2)C(=O)OC)[C@@H]1[C@H](O)Cc1ccccc1`
false (0)

---

molecular target: Calmodulin-1 (Homo sapiens) (UniProt P0DP23); experiment: CALM1 binders on microarrays, EGTA buffer, profiling panel, biochemical, small-molecule microarray, Cy5-labelled CALM1 (AID 1111); details: Cy5-CALM1 binding fluorescence, higher = more signal;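 further: labelled calmodulin applied in Tris saline Tween buffer holding calcium plus EGTA and DTT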
# composite z-score annotations
Format: numeric value only, no unit, no commentary.

compound=CC(=O)N1Cc2ccccc2C[C@@]2(COC(c3ccc(OCCCO)cc3)=N2)C1=O system_tested="Calmodulin-1 (Homo sapiens) (UniProt P0DP23)" data_value=1.79
compound="CS(=O)(=O)CCOC(=O)C1=CC(CCCO)=CC(c2ccc(CN3CCCC3)cc2)N(Cc2cc3c(cc2Br)OCO3)C=C1C(=O)OCCS(C)(=O)=O (configuration not stated)" system_tested="Calmodulin-1 (Homo sapiens) (UniProt P0DP23)" data_value=1.33

Now look at this entry.
Reported composite z-score for O=C1NC(=O)C2C1C=CC(C(O)c1ccccc1)N2Nc1ccc(Cl)cc1Cl (configuration not stated) : what is it?
2.13

---

# composite z-score annotations
test system: glycogen synthase kinase-3 (GSK3A per assay name; protocol says GSK3B); assay: GSK3 binders on small-molecule microarrays, primary screen, biochemical, small-molecule microarray, 635 nm fluorescence, GSK3A (AID 1103); details: small-molecule microarray binding, fluorescence 635 nm; higher = more signal; further: the record names both GSK3A and GSK3B
Format: numeric value only, no unit, no commentary.

Entry CCCCCN1CC=CC23O[C@@H]4/C=C\CCCOC(=O)C4[C@H]2C(=O)N(C(CO)C(C)C)[C@@H]3C1=O (stereo not given in full) , system glycogen synthase kinase-3 (GSK3A per assay name; protocol says GSK3B): what composite z-score was measured?
-0.949

Entry CCOC(=O)C1=CCC(c2ccccc2)N(S(=O)(=O)CC[Si](C)(C)C)C1 (stereo not given) , system glycogen synthase kinase-3 (GSK3A per assay name; protocol says GSK3B): what composite z-score was measured?
-0.157

Entry O=C1OCCC/C=C\[C@H]2OC34C=CCN(Cc5ccccc5)C(=O)[C@H]3N(CCCCCCO)C(=O)[C@@H]4C12 (stereo not given in full) , system glycogen synthase kinase-3 (GSK3A per assay name; protocol says GSK3B): what composite z-score was measured?
-0.457

Entry `COC(=O)c1c(CC[C@@H](CO)NC(=O)N2CCC[C@H]2Cn2cc(-c3ccccn3)nn2)oc(C(C)=O)c1C(=O)OC` , system glycogen synthase kinase-3 (GSK3A per assay name; protocol says GSK3B): what composite z-score was measured?
0.209

Entry COCCCNC(=O)C1N=C(c2ccc(OCCCO)cc2)N(c2ccccc2)O1 (stereo not given) , system glycogen synthase kinase-3 (GSK3A per assay name; protocol says GSK3B): what composite z-score was measured?
0.781

---

assay: small-molecule microarray binders of probe aDKK1, primary screen, biochemical, biotinylated probe, 635/667 nm fluorescence (AID 1099); conditions: higher = more signal;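 further: score merges 667nm spot fluorescence with signal to noise across triplicate slides; reference of the scale not given here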
We use -0.05 as the dividing line for composite z-score: on or above the line is True, below is False.

These solved cases illustrate the format of a correct answer.
compound=COc1cc2c(cc1OC)CN(C(=O)[C@H]1[C@@H]3C(=O)O[C@@H](c4ccccc4)[C@@H](c4ccccc4)N3[C@@H](c3ccc(O)cc3)[C@]13C(=O)Nc1ccc(C#CC4=CCCCC4)cc13)CC2 class_name=True
compound="COc1cc(CO)cc(I)c1O[C@H]1C=C(C(=O)NCCO)C[C@@H](N(CCN2CCOCC2)C(=O)C2CCOC2)[C@@H]1O (stereo partly drawn)" class_name=False
compound=C=C(COC)/C(=C/C[C@@H](OC(C)=O)c1ccc(CO)o1)c1cnc2ccccc2c1 class_name=True
compound=COC(=O)c1c(CC[C@@H](CO)NC(=O)N[C@@H](C)Cn2cc(C3(O)CCCCC3)nn2)oc(C(C)=O)c1C(=O)OC class_name=True
compound=CC(=O)N1Cc2ccccc2C[C@@]2(COC(c3ccc(OCCCO)cc3)=N2)C1=O class_name=True

Is composite z-score at least -0.05? Consider `COC(=O)[C@@]1(Cc2ccc(F)cc2)[C@H]2c3cc(C(=O)N4CCCC4)n(Cc4cc(C)n(C)n4)c3C[C@H]2CN1C(=O)c1ccccc1`
True

---

assay: RPMI8226 myeloma cell viability, profiling panel, resazurin fluorescence, basal, 24 h, PK04 Diversity Set (AID 1180); details: higher = more signal;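 further: RPMI8826 multiple myeloma cell line at 5000 cells per well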
# z-score annotations
Format: numeric value only, no unit, no commentary.

Reference set, count: 5
compound=CCCC=C(CCC)[C@@H](NS(=O)(=O)c1cccs1)c1ccc(C(=O)OC)cc1 property=z-score data_value=-5.85
compound=CC(C)[C@@H](CO)NC(=O)[C@H]1[C@@H](c2ccccc2)N(c2ccccc2)O[C@@H]1C property=z-score data_value=0.566
compound=NCCCCCNC(=O)[C@@H]1C[C@@H]2C(=O)NCC(=O)N2[C@@H]1c1ccc(O)cc1 property=z-score data_value=-0.9
compound=CN(C)C(=O)[C@@]1(Cc2ccccc2CN=[N+]=[N-])N=C(c2ccc(OCCCO)cc2)O[C@H]1c1ccccc1 property=z-score data_value=-3.38
compound=Cc1ccc(S[C@]2(C(=O)NCC(C)C)CC(=O)N(Cc3cc(C(F)(F)F)cc(C(F)(F)F)c3)[C@@H]2c2ccc(CO)cc2I)cc1 property=z-score data_value=-2.27

Reported z-score for `CCCC[C@H]1OB(O)C[C@H]2C1=C(COc1ccccc1)C[C@H]1C(=O)N(C)C(=O)[C@H]12` : what is it?
-0.59

Reported z-score for `CC(C)C[C@@H]1NC(=O)[C@@H]2C[C@H](C(=O)NCCCCCN)[C@H](c3cccc(OCCO)c3)N2C1=O` : what is it?
0.465

Reported z-score for O=C1NC(=O)C2C1C=CC(C(O)c1cccc3ccccc13)N2Nc1ccccn1 (stereo not given) : what is it?
-0.94
